This collection of values is drawn from ChEMBL document CHEMBL2202954.

# System: U-251
# procedure.text: Cytotoxicity against human U251 cells assessed as cellular growth at 10 uM by SRB assay
# Assay type: functional

mol.smiles | Activity
Nc1c(C(=O)Nc2ccccc2)sc2nc3c(cc12)C(=O)CCC3 | 25.69%
Nc1c(C(=O)Nc2ccccc2F)sc2nc3c(cc12)C(=O)CCC3 | 31.63%
Clc1cccc(-c2nc(-c3cccs3)no2)c1 | 84.62%
Cc1ccc(Cl)cc1NC(=O)c1sc2nc3c(cc2c1N)C(=O)CCC3 | 59.13%
COc1cccc(C(=O)Nc2nc3ccc(Cl)cc3s2)c1 | 87.76%
Oc1ccccc1-c1nc(-c2cccs2)no1 | 89.74%
c1ccc(-c2nc(-c3cccs3)no2)cc1 | 94.72%
Cc1ccc(C2=N/C(=C\c3ccccc3)C(=O)O2)cc1 | 107.92%
O=C1N=C(c2ccccc2)S/C1=C\c1ccc2c(c1)OCO2 | 90.93%
Cc1ccc(NC(=O)c2sc3nc4c(cc3c2N)C(=O)CCC4)c(Br)c1 | 94.7%
CC1(C)CCc2cc(-c3ccn(S(=O)(=O)c4cccc(C(F)(F)F)c4)n3)ccc2O1 | 81.96%

###

# System: HT-29
# procedure.text: Cytotoxicity against human HT-29 cells assessed as cellular growth at 10 uM by SRB assay
# Assay type: functional

mol.smiles | unit.name | Activity
Cc1ccccc1NC(=O)c1sc2nc3c(cc2c1N)C(=O)CCC3 | % | 21.08
O=C1N=C(c2ccccc2)S/C1=C\c1ccc2c(c1)OCO2 | % | 101.51
Nc1c(C(=O)Nc2ccccc2)sc2nc3c(cc12)C(=O)CCC3 | % | 4.34
O=c1/c(=C/c2ccccc2Cl)sc2nc(-c3ccccc3)nn12 | % | 112.54
O=C(Nc1nc2ccccc2s1)c1ccc(F)cc1 | % | 108.47
Clc1ccccc1Nc1nnc(-c2ccncc2)s1 | % | 105.3
COc1ccc(Cl)cc1C(=O)Nc1nc2ccc(Cl)cc2s1 | % | 109.45
Cc1ccc(S(=O)(=O)Oc2ccc(-c3cnc4ccccc4n3)cc2)cc1 | % | 89.62
CC1(C)CC(=O)c2cc3c(N)c(C(=O)Nc4ccc(F)cc4)sc3nc2C1 | % | 110.56
Cc1ccc(CNC(=O)c2[nH]c3ccccc3c2Cl)cc1 | % | 100.16
Cc1cc(C)c(NC(=O)c2sc3nc4c(cc3c2N)C(=O)CCC4)c(C)c1 | % | 0.48

###

# System: K562
# procedure.text: Cytotoxicity against human K562 cells assessed as cellular growth at 10 uM by SRB assay
# Assay type: functional
This listing pairs compounds with measured Activity.
property: Activity (%)

mol.smiles | property | unit.name | endpoint.result
O=C(Nc1ccc(S(=O)(=O)Nc2nccs2)cc1)c1cccs1 | Activity | % | 104.24
COc1ccc(S(=O)(=O)n2ccc(-c3ccc4c(c3)CCC(C)(C)O4)n2)cc1 | Activity | % | 55.64
CC1(C)CCc2cc(-c3ccn(S(=O)(=O)c4cccc(C(F)(F)F)c4)n3)ccc2O1 | Activity | % | 63.16
O=c1/c(=C/c2ccccc2Cl)sc2nc(-c3ccccc3)nn12 | Activity | % | 48.93
Cc1cc(C)c(NC(=O)c2sc3nc4c(cc3c2N)C(=O)CC(C)(C)C4)c(C)c1 | Activity | % | 90.16
CC1(C)CC(=O)c2cc3c(N)c(C(=O)Nc4ccc(F)cc4)sc3nc2C1 | Activity | % | 106.71
Clc1ccc(-c2nc(-c3cccs3)no2)cc1 | Activity | % | 101.77
Cc1ccc(NC(=O)c2sc3nc4c(cc3c2N)C(=O)CCC4)c(Br)c1 | Activity | % | 104.86
Clc1ccc(-c2nc(-c3cccs3)no2)c(Cl)c1 | Activity | % | 96.15
O=C(Nc1ccc2oc(=O)ccc2c1)c1ccc(-c2ccc(Br)cc2)o1 | Activity | % | 95.77
N#Cc1ccc(NC(=O)c2sc3nc4c(cc3c2N)C(=O)CCC4)cc1 | Activity | % | 108.42
